measuredOn: Fuc(a1-2)[Gal(a1-3)]Gal(b1-4)Glc
testDetails: glycan array binding signal (z-score within array); higher = stronger binding
testSettings: glycan notation: IUPAC condensed, linker removed
The sample as a whole holds a higher share of the strongest signals than the screen did.
experimentalEndpoint: glycan array binding signal (z-score)

[[record]]
binder = "MCL (Mus musculus), Q9Z2H6 (protein) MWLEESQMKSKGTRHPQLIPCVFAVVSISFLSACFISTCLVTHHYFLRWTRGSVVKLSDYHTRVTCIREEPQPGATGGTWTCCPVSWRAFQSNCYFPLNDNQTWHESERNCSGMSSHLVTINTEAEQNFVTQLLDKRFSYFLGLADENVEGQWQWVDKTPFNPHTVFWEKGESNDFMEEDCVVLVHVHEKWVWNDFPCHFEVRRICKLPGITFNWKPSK"
obsvalue = -0.321

[[record]]
binder = "Gal 8 (Homo sapiens), O00214 (protein) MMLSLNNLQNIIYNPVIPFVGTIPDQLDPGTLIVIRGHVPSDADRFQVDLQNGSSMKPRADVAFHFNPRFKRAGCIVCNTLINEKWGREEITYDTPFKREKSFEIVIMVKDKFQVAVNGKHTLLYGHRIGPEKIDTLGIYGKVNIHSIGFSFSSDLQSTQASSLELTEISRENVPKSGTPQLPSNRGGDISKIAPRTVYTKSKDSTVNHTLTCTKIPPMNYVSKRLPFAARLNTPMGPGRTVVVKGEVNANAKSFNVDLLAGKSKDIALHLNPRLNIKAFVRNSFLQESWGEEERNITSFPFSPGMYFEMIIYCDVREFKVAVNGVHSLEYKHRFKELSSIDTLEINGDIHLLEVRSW"
obsvalue = 5.02

[[record]]
binder = "SLR2P2A3 (Tachypleus tridentatus), TAL2_TACTR (protein) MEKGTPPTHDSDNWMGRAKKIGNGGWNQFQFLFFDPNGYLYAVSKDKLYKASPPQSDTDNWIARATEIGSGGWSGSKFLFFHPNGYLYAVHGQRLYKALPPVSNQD"
obsvalue = -0.191

